# Tested on: Sphaerotheca fuliginea
# assay method text: Controlling effect on Sphaerotheca fuliginea by foliage application (pot experiment)
# Format: in vivo
# run conditions: Podosphaera fuliginea, in Cucumis sativus, foliar, 240 h, foliage spray on cucumber (cv. TSUKUBASHIROIBO) first leaves, infected area after 10 days in greenhouse at 20° C., read-out: Controlling effect on Sphaerotheca fuliginea by foliage application at 500 ppm (percent control)
quantity measured: pest or weed control at 500 ppm (%)
Report the value in % with no unit label.

input: What value of pest or weed control at 500 ppm has been reported for the following molecule? CON=C(c1ccccc1ON=C(C)c1cccc(C(F)(F)F)c1)C1NCCS1 (stereo not shown) [Compound No. 2799]
output: 100

input: Now the molecule CON=C(c1ncno1)c1ccccc1COc1ccc(Cl)cc1 [Compound No. 1584]
output: 100

input: Next up: CON=C(c1cc(C)no1)c1ccccc1CON=C(C)c1ccc(Cl)c(Cl)c1 [compound 2528]
output: 100

input: Let us now turn to CON=C(c1ncon1)c1ccccc1COc1ccc(Cl)cc1 [Compound No. 807]
output: 100

input: Also CON=C(c1ccon1)c1ccccc1COc1cc(C)ccc1C (single isomer, unassigned) [Compound No. 336] , if possible.
output: 100

input: Now try OC(c1ccc(Cl)cc1)(c1cncnc1)c1ccccc1Cl (stereo not shown) [Fenarimol, reference compound] .
output: 97

input: Can you handle CON=C(c1cc(C)no1)c1ccccc1COc1ncc(C(F)(F)F)cc1Cl (single isomer, unassigned) [690A] next?
output: 100

input: Then what about the molecule CON=C(c1cc(C)no1)c1ccccc1COc1cc(C)ccc1C (single isomer, unassigned) [636A] ?
output: 97

input: Can you check CON=C(c1nnn(C)n1)c1ccccc1COc1cc(C)ccc1C [Compound No. 2036] next?
output: 100

input: And for CON=C(c1nnco1)c1ccccc1COc1cc(C)ccc1C [Compound No. 736] ?
output: 100
